For each of the compounds below, state its pEC50.
Test system: SARS-CoV-2_mNeonGreen virus (Wuhan strain)
Assay: microbe, parasite or virus in culture
Type: cell-based
Conditions: Severe acute respiratory syndrome coronavirus 2; read-out: EC50 Mean ± SD (antiviral activity)
Scale for pEC50: -log10 of concentration given in mol/L; no unit attached.

Return reported pEC50; argument: CCC(CC)COC(=O)[C@H](C)N[P@](=O)(OC[C@H]1O[C@@](C#N)(c2ccc3c(N)ncnn23)[C@H](O)[C@@H]1O)Oc1ccccc1 7.40

Return reported pEC50; argument: N#C[C@@]1(c2ccc3c(N)ncnn23)O[C@H](CO)[C@@H](O)[C@H]1O 5.78

Return reported pEC50; argument: CC(C)(C)[C@H](NC(=O)C(F)(F)F)C(=O)N1C[C@H]2[C@@H]([C@H]1C(=O)N[C@H](C#N)C[C@@H]1CCNC1=O)C2(C)C 6.92

Return reported pEC50; argument: Cn1cnc(Cn2c(=O)[nH]/c(=N\c3cc4cn(C)nc4cc3Cl)n(Cc3cc(F)c(F)cc3F)c2=O)n1 6.59

* * *

System: A549+hACE2+hTMPRSS2_mCherry cells
ENDPOINT NAME: CC50

Request: CC50, test system A549+hACE2+hTMPRSS2_mCherry cells, entry COc1cccc2[nH]c(C(=O)N[C@@H](CC(C)C)C(=O)N[C@@H](C[C@@H]3CCNC3=O)C(=O)CO)cc12 > 50 µM

* * *

Tested on: SARS-CoV-2_mNeonGreen virus (Wuhan strain)
Assay: microbe, parasite or virus in culture
Format: cell-based
Details: Severe acute respiratory syndrome coronavirus 2; read-out: EC50 Mean ± SD (antiviral activity)
ENDPOINT NAME: pEC50
Scale for pEC50: -log10 of concentration given in mol/L; no unit attached.

Request: pEC50, test system SARS-CoV-2_mNeonGreen virus (Wuhan strain), entry C/C=C/C[C@@H](C)[C@@H](O)[C@H]1C(=O)N[C@@H](CC)C(=O)N(C)[C@H](C)C(=O)N(CC)[C@@H](C(C)C)C(=O)N[C@@H](C(C)C)C(=O)N(C)[C@@H](CC(C)C)C(=O)N[C@@H](C)C(=O)N[C@H](C)C(=O)N(C)[C@@H](CC(C)C)C(=O)N(C)[C@@H](CC(C)C)C(=O)N(C)[C@@H](C(C)C)C(=O)N1C 5.84

Request: pEC50, test system SARS-CoV-2_mNeonGreen virus (Wuhan strain), entry CC(C)C(=O)OC[C@H]1O[C@@H](n2ccc(NO)nc2=O)[C@H](O)[C@@H]1O 5.90

Recorded values, source paper PMC9767876.
